# target.of.assay: Geranylgeranyl transferase type I (Bos taurus, UniProt P29702+Q5EAD5)
# assay.overview: Inhibition of bovine Geranylgeranyl transferase type I
pIC50: −log10 of the molar value.
Think of 5 as a floor: if pIC50 stands on it or above, it is T; beneath it, F.

Hi team, for CCC[C@@H](C(=O)N[C@@H](CCO)C(=O)O)N(C)C[C@@H](NC[C@@H](N)CS)[C@H](C)CC , is the recorded pIC50 at or above 5?
F

Hi team, for CC[C@@H](C)[C@@H](CN(CC(=O)N[C@@H](CCSC)C(=O)O)Cc1ccccc1)NC[C@@H](N)CS , is the recorded pIC50 at or above 5?
T

Hi team, for CC[C@@H](C)[C@@H](CN(CC(=O)N[C@@H](CCO)C(=O)O)Cc1cccc2ccccc12)NC[C@@H](N)CS , is the recorded pIC50 at or above 5?
T

Hi team, for CC[C@@H](C)[C@@H](CN[C@@H](Cc1ccccc1)C(=O)N[C@@H](CCSC)C(=O)O)NC[C@@H](N)CS , is the recorded pIC50 at or above 5?
T

Hi team, for CC[C@@H](C)[C@@H](CN(C)[C@H](C(=O)N[C@@H](CCSC)C(=O)O)[C@@H](C)CC)NC[C@@H](N)CS , is the recorded pIC50 at or above 5?
T

Kindly review the next molecule as well.
Hi team, for CC[C@@H](C)[C@@H](CN(CC(=O)N[C@@H](CCSC)C(=O)O)Cc1ccccc1)NCCCS , is the recorded pIC50 at or above 5?
F
